Numbers sourced from PubChem BioAssay (NCI).

Overview of recorded GI50 for various compounds
System: TK-10 renal
Test: NCI tumour cell line growth inhibition, 48 h

Examples with their reported GI50 follow.
- Compound: "COc1cc2c(/C=C3/C(=O)Nc4c3ccc3ccccc43)c(Cl)[nH]c2cc1C"
  Target desc: "TK-10 renal"
  GI50: "30.5 µM"
- Compound: "O=C(CN/C=C\\C(=O)c1cc(Cl)ccc1Cl)c1ccccc1"
  Target desc: "TK-10 renal"
  GI50: "26 µM"
- Compound: "OCCCNC(=S)Nc1ccc(-c2nc3ccccc3s2)cc1"
  Target desc: "TK-10 renal"
  GI50: "19.3 µM"
- Compound: "Cc1ccc(C2CC(c3cccc(Nc4ccncc4)c3)=NN2c2ccc(Cl)cc2)cc1 (stereo unspecified)"
  Target desc: "TK-10 renal"
  GI50: "1.78 µM"
- Compound: "CCOC(=O)C1=C(N)Oc2cc(OC)ccc2C1c1ccc(F)c(F)c1 (stereo unspecified)"
  Target desc: "TK-10 renal"
  GI50: "9.5 µM"

Problem: What value of measured GI50 is listed for COc1ccc2oc(-c3ccc(Cl)cc3)c(N3CCN(C)CC3)c2c1 ?
Result: 1.83 µM

* * *

Overview of recorded TGI for various molecules
Tested on: SK-MEL-5 melanoma
Assay: NCI tumour cell line growth inhibition, 48 h

Examples with their reported TGI follow.
- Molecule: "COc1cc([C@@H]2c3cc4c(cc3[C@@H](NC(=O)c3ccc([N+](=O)[O-])cc3)C3COC(=O)[C@@H]32)OCO4)cc(OC)c1O (stereo not given in full)"
  TGI: "3.53 µM"
- Molecule: "CCCN1CN(C(C(=O)N[C@@H]2C(=O)N3C(C(=O)O)=C(C)CSC23)c2ccccc2)CSC1=S (stereo not given in full)"
  TGI: "> 100 µM"
- Molecule: "O=C(CN1C(=O)c2ccccc2C1=O)OCC1CCCN2CCCCC12 (stereo not given)"
  TGI: "> 100 µM"
- Molecule: "COc1ccc2nc(-c3ccc(O)cc3)cn2c1"
  TGI: "62.6 µM"
- Molecule: "O=C1C=CC(=O)N1CCCCCCCCCCN1C(=O)C=CC1=O"
  TGI: "56.1 µM"
- Molecule: "CC(=O)/C=C/c1ccc(N(C)Cc2ccc(C(C)(C)C)cc2)cc1"
  TGI: "184 µM"

Problem: What value of measured TGI is listed for CC1(c2nc3cc(Cl)c(Cl)cc3[nH]2)CCC(C(=O)O)C(C)(C)O1 (stereo not given) ?
Result: > 100 µM

Problem: What value of measured TGI is listed for N=C(N)c1ccc(-c2ccc(-c3ccco3)o2)cc1F ?
Result: 3.04 µM

Problem: What value of measured TGI is listed for O=C1NCN(c2ccccc2)C12CCN(CCCSc1ccc(F)cc1)CC2 ?
Result: 17.9 µM

Problem: What value of measured TGI is listed for CCOC(=O)C1C(=O)CC(C)(O)C(C(=O)OCC)C1c1ccc(OC)cc1 (stereo not given) ?
Result: > 100 µM

* * *

Overview of recorded TGI for various compounds
System: HCT-116 colon
Experiment: NCI tumour cell line growth inhibition, 48 h
// note: answer is a bare numeric in µM

Examples with their reported TGI follow.
- Compound: "Cc1c(C)c(C)c(CSC(=N)N)c(C)c1C"
  Quantity measured: "TGI"
  Unit descriptor: "µM"
  Result: 30
- Compound: "O=C(CN/C=C\\C(=O)c1cc(Cl)ccc1Cl)c1ccccc1"
  Quantity measured: "TGI"
  Unit descriptor: "µM"
  Result: 43.1
- Compound: "COc1ccc(C2Oc3c(cccc3OC)C=C2[N+](=O)[O-])cc1 (stereo not given)"
  Quantity measured: "TGI"
  Unit descriptor: "µM"
  Result: 2.55
- Compound: "O=C1/C(=C/c2ccc(O)cc2)CCc2ccccc21"
  Quantity measured: "TGI"
  Unit descriptor: "µM"
  Result: 31.6
- Compound: "CC(=O)OCC1OC(OC2CC3C(C)(C)C(=O)CC[C@]3(C)C3CC[C@]45C[C@]4(CCC5[C@@H](C)CC(O)C(O)C(C)(C)O)[C@]23C)C(O)C(O)C1O (stereo not given in full)"
  Quantity measured: "TGI"
  Unit descriptor: "µM"
  Result: 20

Next, consider the following compound.
Problem: What value of measured TGI is listed for COc1cccc(-c2cc(NCc3ccc4c(c3)OCO4)nc(N)n2)c1 ?
Result: 11.6
